Source of measurements: ChEMBL document CHEMBL2380255

- subject of test: Adenosine receptor A1 (Homo sapiens)
- assay summary: Displacement of [3H]CCPA from human recombinant adenosine A1 receptor expressed in CHO cells after 90 mins by liquid scintillation counting analysis
- Assay type: cell-based
pKi: −log10 of the molar value.
experimental endpoint: pKi

1. O=C(C/C=C/c1cccc(Cl)c1)Nc1nc2ccccc2c(=O)s1: 6.25
2. Cc1ccc2nc(NC(=O)CCCc3ccccc3)sc(=O)c2c1: 6.00
3. O=C(CCCc1ccccc1)Nc1nc2ccccc2c(=O)s1: 5.60

I = O=C(CCCc1ccccc1)Nc1nc2cc(Cl)ccc2c(=O)s1
II = O=C(Nc1nc2ccccc2c(=O)s1)c1ccc(C(=O)N2CCN(Cc3ccc(Cl)cc3)CC2)cc1
// select label with min value of measured pKi from [ I , II ] Mark your answer with the label of the selected entry.
II

====

- subject of test: Amine oxidase [flavin-containing] B (Homo sapiens)
- Sequence (P27338 whole entry): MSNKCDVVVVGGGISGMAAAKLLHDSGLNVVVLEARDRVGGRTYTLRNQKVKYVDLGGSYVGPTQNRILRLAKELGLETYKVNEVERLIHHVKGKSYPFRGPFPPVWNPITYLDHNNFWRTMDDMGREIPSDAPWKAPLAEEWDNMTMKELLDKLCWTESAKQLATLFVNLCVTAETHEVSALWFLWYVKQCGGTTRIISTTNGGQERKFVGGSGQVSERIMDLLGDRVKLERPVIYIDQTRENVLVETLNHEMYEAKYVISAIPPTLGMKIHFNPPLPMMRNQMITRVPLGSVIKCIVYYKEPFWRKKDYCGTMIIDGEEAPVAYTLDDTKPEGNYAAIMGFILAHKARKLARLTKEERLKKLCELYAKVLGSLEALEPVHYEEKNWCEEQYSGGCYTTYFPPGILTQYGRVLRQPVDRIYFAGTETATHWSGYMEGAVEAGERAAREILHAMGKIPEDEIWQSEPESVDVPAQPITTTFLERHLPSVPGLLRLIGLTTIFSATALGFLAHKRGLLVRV
- assay summary: Reversible inhibition of human MAO-B using p-tyramine as substrate at IC80 incubated for 22 mins followed by substrate addition measured for 5 hrs by fluorescence assay
experimental endpoint: inhibition (INH)

Some solved cases for reference:
1. O=C(CCCc1ccccc1)Nc1nc2ccccc2c(=O)s1: Active
2. C[C@H](NCc1ccc(OCc2cccc(F)c2)cc1)C(N)=O [SAFINAMIDE]: Active
3. O=C(CCCc1ccccc1)Nc1nc2sccc2c(=O)s1: Active
4. O=C(CCc1ccccc1)Nc1nc2ccccc2c(=O)s1: Active

Consider now this further molecule.
Write down inhibition (INH) measured for item "COc1cccc(CCC(=O)Nc2nc3ccccc3c(=O)s2)c1"
Active

====

- subject of test: Adenosine receptor A1 (Homo sapiens, UniProt P30542)
- Sequence (P30542 whole entry): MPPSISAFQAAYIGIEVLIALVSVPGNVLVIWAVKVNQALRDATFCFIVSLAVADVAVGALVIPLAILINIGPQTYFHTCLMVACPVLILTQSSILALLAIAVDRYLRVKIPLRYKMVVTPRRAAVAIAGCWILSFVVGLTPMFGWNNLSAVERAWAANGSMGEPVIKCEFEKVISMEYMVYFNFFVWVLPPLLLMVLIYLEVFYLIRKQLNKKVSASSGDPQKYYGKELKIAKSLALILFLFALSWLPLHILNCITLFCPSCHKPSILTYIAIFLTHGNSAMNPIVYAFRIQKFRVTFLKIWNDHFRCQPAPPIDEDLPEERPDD
- assay summary: Displacement of [3H]CCPA from human recombinant adenosine A1 receptor expressed in CHO cells
experimental endpoint: pKi
Remember, pKi is on a log scale: it is -log10 of the molar concentration.

State pKi (Adenosine receptor A1 (Homo sapiens, UniProt P30542)) of "CCn1c(=O)c2c(nc(/C=C/c3ccc(OC)c(OC)c3)n2C)n(CC)c1=O" .
5.55

====

- Species: Homo sapiens
- assay summary: Selectivity ratio of Ki for human recombinant adenosine A1 receptor to Ki for human recombinant adenosine A2A receptor
experimental endpoint: Ratio Ki

Some solved cases for reference:
1) O=C(CCCc1ccccc1)Nc1nc2ccccc2c(=O)s1: 63
2) O=C(CCc1ccccc1)Nc1nc2ccccc2c(=O)s1: 13
3) O=C(CCCc1ccccc1)Nc1nc2sccc2c(=O)s1: 4

P = COc1cccc(CCC(=O)Nc2nc3ccccc3c(=O)s2)c1
Q = O=C(Nc1nc2ccccc2c(=O)s1)c1ccc(C(=O)N2CCN(Cc3ccc(Cl)cc3)CC2)cc1
// select label with min value of measured Ratio Ki from [ P , Q ] Mark your answer with the label of the selected entry.
P
(P: 21, Q: 100)

====

- Species: Homo sapiens
- assay summary: Selectivity ratio of Ki for human recombinant adenosine A3 receptor to Ki for human recombinant adenosine A2A receptor
experimental endpoint: Ratio Ki

1 = O=C(CCc1ccccc1)Nc1nc2ccccc2c(=O)s1
2 = O=C(CCCc1ccccc1)Nc1nc2sccc2c(=O)s1
3 = COc1cccc(CCC(=O)Nc2nc3ccccc3c(=O)s2)c1
Thanks in advance: please rank these 3 entries by Ratio Ki, highest to lowest. Reply format: the labels, ordered as requested.
2, 1, 3
(2: 12, 1: 5, 3: 3)

====

# pKi per record follows
- subject of test: Adenosine receptor A2b (Homo sapiens)
- Sequence (P29275 whole entry): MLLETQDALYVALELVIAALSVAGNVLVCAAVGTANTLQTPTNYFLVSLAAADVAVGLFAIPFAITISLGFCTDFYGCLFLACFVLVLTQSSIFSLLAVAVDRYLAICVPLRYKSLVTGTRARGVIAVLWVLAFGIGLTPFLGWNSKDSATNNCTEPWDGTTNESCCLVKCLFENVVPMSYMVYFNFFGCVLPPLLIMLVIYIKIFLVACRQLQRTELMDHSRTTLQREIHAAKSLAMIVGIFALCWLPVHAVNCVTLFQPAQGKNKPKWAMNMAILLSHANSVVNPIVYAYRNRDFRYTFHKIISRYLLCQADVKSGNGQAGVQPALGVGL
- assay summary: Displacement of [3H]PSB-603 from human recombinant adenosine A2B receptor expressed in CHO cells after 75 mins by liquid scintillation counting analysis
pKi: −log10 of the molar value.

Some solved cases for reference:
1. O=C(CCCc1ccccc1)Nc1nc2ccc(Br)cc2c(=O)s1: < 6.00
2. O=C(CCCc1ccccc1)Nc1nc2sccc2c(=O)s1: 6.44
3. O=C(Nc1nc2ccccc2c(=O)s1)c1ccc(C(=O)N2CCN(Cc3ccccc3Cl)CC2)cc1: < 6.00
4. Cc1sc2nc(NC(=O)CCCc3ccccc3)sc(=O)c2c1C: < 6.00
5. Cc1ccc2nc(NC(=O)CCCc3ccccc3)sc(=O)c2c1: 6.39
6. O=C(CCCc1ccccc1)Nc1nc2ccccc2c(=O)s1: < 6.00
7. O=C(CCc1ccccc1)Nc1nc2ccccc2c(=O)s1: 6.44
8. O=C(Nc1nc2ccccc2c(=O)s1)c1ccc(C(=O)N2CCN(Cc3cccc(Cl)c3)CC2)cc1: < 6.00
9. O=C(C/C=C/c1ccc(Cl)c(Cl)c1)Nc1nc2ccccc2c(=O)s1: < 6.00
10. COc1cccc(/C=C/C(=O)Nc2nc3ccccc3c(=O)s2)c1: 6.17

Write down pKi measured for item "O=C(CCc1ccc(Cl)c(Cl)c1)Nc1nc2ccccc2c(=O)s1"
< 6.00

Write down pKi measured for item "CN(C(=O)CCCc1ccccc1)c1nc2ccccc2c(=O)s1"
< 6.00

Write down pKi measured for item "O=C(CCCc1ccccc1)Nc1nc2ccc(Cl)cc2c(=O)s1"
< 6.00

Write down pKi measured for item "COc1cccc(CCC(=O)Nc2nc3ccccc3c(=O)s2)c1"
6.65

Write down pKi measured for item "O=C(COc1cccc(Cl)c1)Nc1nc2ccccc2c(=O)s1"
< 6.00

Write down pKi measured for item "COc1cccc(C#CC(=O)Nc2nc3ccccc3c(=O)s2)c1"
< 6.00

Write down pKi measured for item "COCCOc1ccc(N2CCN(CCn3ncc4c3nc(N)n3nc(-c5ccco5)nc43)CC2)cc1"
< 6.00

====

- subject of test: UniProtKB P30543
- Sequence (P30543 whole entry): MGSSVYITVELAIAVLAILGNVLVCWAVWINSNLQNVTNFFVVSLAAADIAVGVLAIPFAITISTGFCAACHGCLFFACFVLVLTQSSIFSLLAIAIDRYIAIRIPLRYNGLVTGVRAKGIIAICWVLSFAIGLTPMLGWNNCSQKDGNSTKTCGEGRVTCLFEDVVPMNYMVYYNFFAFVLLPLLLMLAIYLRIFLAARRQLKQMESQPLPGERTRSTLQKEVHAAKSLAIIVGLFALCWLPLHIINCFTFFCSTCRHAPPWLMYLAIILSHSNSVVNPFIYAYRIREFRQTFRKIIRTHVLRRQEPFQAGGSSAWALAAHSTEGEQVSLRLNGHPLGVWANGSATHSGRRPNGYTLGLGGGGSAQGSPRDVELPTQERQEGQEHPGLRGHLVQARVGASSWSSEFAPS
- assay summary: Displacement of [3H]MSX2 from adenosine A2A receptor in rat brain striatal membranes after 30 mins by liquid scintillation counting analysis
- Assay type: cell membranes, Membrane
experimental endpoint: Ki (nM)

1) COc1cccc(/C=C/C(=O)Nc2nc3ccccc3c(=O)s2)c1: 253
2) Cc1ccc2nc(NC(=O)CCCc3ccccc3)sc(=O)c2c1: 6060

I = O=C(CCc1ccccc1)Nc1nc2ccccc2c(=O)s1
II = O=C(C/C=C/c1ccccc1)Nc1nc2ccccc2c(=O)s1
Hi team, can someone confirm which has the larger Ki: I or II ? Thanks. Mark your answer with the label of the selected entry.
II

P = O=C(CCc1ccccc1F)Nc1nc2ccccc2c(=O)s1
Q = O=C(CCCc1ccccc1)Nc1nc2sccc2c(=O)s1
Hi team, can someone confirm which has the larger Ki: P or Q ? Thanks. Mark your answer with the label of the selected entry.
P

====

- subject of test: Amine oxidase [flavin-containing] B (Rattus norvegicus)
- Sequence (P19643 whole entry): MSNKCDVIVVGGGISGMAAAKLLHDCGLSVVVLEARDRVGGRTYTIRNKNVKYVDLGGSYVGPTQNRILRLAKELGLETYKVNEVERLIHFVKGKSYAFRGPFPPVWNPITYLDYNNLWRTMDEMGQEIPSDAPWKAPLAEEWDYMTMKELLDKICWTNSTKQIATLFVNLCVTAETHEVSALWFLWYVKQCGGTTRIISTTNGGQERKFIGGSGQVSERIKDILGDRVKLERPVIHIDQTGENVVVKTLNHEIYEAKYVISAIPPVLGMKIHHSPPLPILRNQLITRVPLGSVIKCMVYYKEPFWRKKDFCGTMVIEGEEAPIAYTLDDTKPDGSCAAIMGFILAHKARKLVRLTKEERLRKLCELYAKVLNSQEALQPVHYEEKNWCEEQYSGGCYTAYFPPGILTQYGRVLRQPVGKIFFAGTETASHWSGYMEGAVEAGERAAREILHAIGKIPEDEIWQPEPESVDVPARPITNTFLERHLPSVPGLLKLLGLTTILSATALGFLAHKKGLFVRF
experimental endpoint: IC50 (nM)

Some solved cases for reference:
1) COc1cccc(CCC(=O)Nc2nc3ccccc3c(=O)s2)c1: 621
2) Cn1c(=O)c2c(nc(/C=C/c3cccc(Cl)c3)n2C)n(C)c1=O: 38.5
3) COc1cccc(/C=C/C(=O)Nc2nc3ccccc3c(=O)s2)c1: 281
4) O=C(CCc1ccccc1F)Nc1nc2ccccc2c(=O)s1: 725

I = C[C@H](NCc1ccc(OCc2cccc(F)c2)cc1)C(N)=O [SAFINAMIDE]
II = O=C(CCCc1ccc(Cl)c(Cl)c1)Nc1nc2ccccc2c(=O)s1
III = O=C(C/C=C/c1cccc(Cl)c1)Nc1nc2ccccc2c(=O)s1
Rank order required: IC50, descending. Reply format: the labels, ordered as requested.
II, III, I
(II: 3300 nM, III: 840 nM, I: 25.8 nM)

====

pKi: −log10 of the molar value.
Target or system Adenosine receptor A1 (Rattus norvegicus); recorded quantity pKi.
experimental endpoint: pKi

Some solved cases for reference:
1) O=C(CCCc1cccc(Cl)c1)Nc1nc2ccccc2c(=O)s1: 6.05
2) O=C(C/C=C/c1cccc(Cl)c1)Nc1nc2ccccc2c(=O)s1: 7.94
3) O=C(C/C=C/c1ccccc1)Nc1nc2ccccc2c(=O)s1: 7.28

I = COc1cccc(/C=C/C(=O)Nc2nc3ccccc3c(=O)s2)c1
II = COc1cccc(/C=C/CC(=O)Nc2nc3ccccc3c(=O)s2)c1
// select label with min value of measured pKi from [ I , II ] Mark your answer with the label of the selected entry.
I
